- Measured target: Oxysterols receptor LXR-beta (Homo sapiens)
- Measurement description: ATG_LXRb_TRANS: Attagene TRANS-FACTORIAL HepG2 Assay for human Liver X Receptor beta (LXRb) (AID 2282981)
- Assay context: HepG2 Attagene TRANS GAL4-LXRb reporter, mRNA
Inconclusive results are not listed. The source made the active and inactive calls. The calls were made as follows: active = hit-call score of the fitted dose curve at least 0.9, where 1 is the maximum; inconclusive = response in the unintended direction; inactive = score below 0.9.
Outcome codes: TRUE = active, FALSE = inactive

>>> assigned_category("CNC(=O)Oc1cc(C)c(SC)c(C)c1")
"FALSE"
>>> assigned_category("CC(=O)c1cc2c(cc1C)C(C)(C)C(C)CC2(C)C (stereo not drawn)")
"FALSE"
>>> assigned_category("Nc1cc(Cl)cc(Cl)c1")
"FALSE"
>>> assigned_category("C=C(Cl)CCl")
"FALSE"
>>> assigned_category("CCCC=NO")
"FALSE"
>>> assigned_category("C=CC(=O)OCC(CC)CCCC (stereo not drawn)")
"FALSE"
>>> assigned_category("C[C@]12CC[C@H](O)C[C@H]1CC[C@@H]1[C@@H]2C[C@@H](O)[C@]2(C)[C@@H](C3=CC(=O)OC3)CC[C@]12O")
"FALSE"
>>> assigned_category("Nc1ccc([N+](=O)[O-])cc1N")
"FALSE"
>>> assigned_category("Nc1ccccc1")
"FALSE"
>>> assigned_category("O=[N+]([O-])C=Cc1ccccc1")
"FALSE"
>>> assigned_category("C=CC(=O)OC")
"FALSE"
>>> assigned_category("O=C(CCl)c1ccccc1")
"FALSE"
>>> assigned_category("O=C=Nc1ccccc1")
"FALSE"
>>> assigned_category("O=C1Nc2ccc(Cl)cc2C(c2ccccc2)=NC1O (stereo not drawn)")
"FALSE"
>>> assigned_category("CC(=O)/C=C/c1ccccc1")
"FALSE"
>>> assigned_category("CN(N=O)c1ccccc1")
"FALSE"
>>> assigned_category("O=P(O)(Oc1ccccc1)Oc1ccccc1")
"FALSE"
>>> assigned_category("c1cc(OCC2CO2)ccc1Cc1ccc(OCC2CO2)cc1 (stereo not drawn)")
"FALSE"
>>> assigned_category("CC1CCCC1.[C-]#[O+].[C-]#[O+].[C-]#[O+].[Mn]")
"FALSE"
>>> assigned_category("C=C(Cl)Cl")
"FALSE"
>>> assigned_category("CN(C)N")
"FALSE"
>>> assigned_category("CC=Cc1ccc2c(c1)OCO2")
"FALSE"
>>> assigned_category("CC(Cc1ccc(C(C)(C)C)cc1)CN1C[C@@H](C)O[C@@H](C)C1 (stereo partly drawn)")
"FALSE"
>>> assigned_category("[N-]=[N+]=CC(=O)OC[C@H](N)C(=O)O")
"FALSE"
>>> assigned_category("O=[N+]([O-])c1cc([N+](=O)[O-])c2ccccc2c1")
"FALSE"
>>> assigned_category("NNc1ccccc1")
"FALSE"
>>> assigned_category("CC(C)(Cl)Cl")
"FALSE"
>>> assigned_category("C[N+](=O)[O-]")
"FALSE"
>>> assigned_category("O=S(=O)(O)OOS(=O)(=O)O")
"FALSE"
>>> assigned_category("O=C(NC(=O)c1c(F)cccc1F)Nc1ccc(Oc2ccc(C(F)(F)F)cc2Cl)cc1F")
"FALSE"
>>> assigned_category("CCCCOP(=O)(O)OCCCC")
"FALSE"
>>> assigned_category("CC(C)CCCCCCCOP(=O)(Oc1ccccc1)Oc1ccccc1")
"FALSE"
>>> assigned_category("Nc1c(Cl)c(Cl)c(Cl)c(Cl)c1Cl")
"TRUE"
>>> assigned_category("CCCCNP(N)(N)=S")
"FALSE"
>>> assigned_category("c1ccc2c(c1)CCCC2")
"FALSE"
>>> assigned_category("CC(=O)C=Cc1ccccc1")
"FALSE"
>>> assigned_category("O=P1(NCCCl)OCCCN1CCCl (stereo not drawn)")
"FALSE"
>>> assigned_category("CCOC(=O)N(C)N=O")
"FALSE"
>>> assigned_category("COc1ccc(CO)cc1")
"FALSE"
>>> assigned_category("CCCOC(=O)c1ccccc1C(=O)OCCC")
"FALSE"
>>> assigned_category("C[C@]12CCC(=O)C(O)=C1CC[C@@H]1[C@@H]2CC[C@]2(C)C(=O)CC[C@@H]12")
"FALSE"
>>> assigned_category("O=C(O)c1cc[c]([Hg][Cl])cc1")
"FALSE"
>>> assigned_category("c1ccc(Nc2ccc3ccccc3c2)cc1")
"FALSE"
>>> assigned_category("O=C1C=CC(=O)C=C1")
"FALSE"
>>> assigned_category("O=[N+]([O-])O.O=[N+]([O-])O.[Cd]")
"FALSE"
>>> assigned_category("COc1cc(OC)nc(Oc2cccc(Oc3nc(OC)cc(OC)n3)c2C(=O)O)n1")
"FALSE"
>>> assigned_category("Cc1ccc(C)c2ccccc12")
"FALSE"
>>> assigned_category("CCOP(=O)(OCC)Oc1ccc([N+](=O)[O-])cc1")
"FALSE"
